tested on: MDA-MB-435; assay: NCI tumour cell line growth inhibition, 48 h

compound: COc1ccc(N2C(=O)C(=O)C3(CCCCC3)C2=O)c2ccccc12
TGI: > 10 µM
--
compound: COC(=O)C(=O)Nc1cc2c3c(c1)Oc1cccc4c1C3(C)c1c(cccc1O2)O4
TGI: > 100 µM
--
compound: O=C1Oc2ccccc2C(=O)/C1=C/N1C(=O)CNC1=S
TGI: > 100 µM
--
compound: CC(Cn1c2c(c3cc(O)ccc31)CCc1ccc(O)cc1-2)N(C)C (stereo unspecified)
TGI: 41 µM
--
compound: COc1ccc(COCC[C@H](C)OC2OC(CO)C(O)C(O)C2O)cc1 (stereo partly specified)
TGI: > 100 µM
--
compound: O=C1Nc2ccc3c(c2/C1=C\c1cc2c(cc1Br)OCO2)OCO3
TGI: 0.305 µM

====

tested on: 786-0 renal; assay: NCI tumour cell line growth inhibition, 48 h; in the data active means GI50 below about 0.43 µM; inactive means the rest
Possible outcomes: 1 (yes) for active, 0 (no) for inactive

compound: C[As](C)SC1OCC(O)C(O)C1O (stereo not drawn)
measured_on: 786-0 renal
class_label: 1 (yes)
//
compound: CS(=O)(=O)Nc1cc(-c2ccc3ncnc(Nc4cccc(Cl)c4)c3c2)cnc1Cl
measured_on: 786-0 renal
class_label: 0 (no)
//
compound: CC(=O)Oc1cc2cnc3c4cc(OC(C)=O)c(OC(C)=O)cc4ccc3c2cc1OC(C)=O
measured_on: 786-0 renal
class_label: 0 (no)
//
compound: COc1ccc(/C=C/C(=O)c2cc3c(N)c(C(=O)Nc4ccc(OC)cc4)sc3nc2C)cc1
measured_on: 786-0 renal
class_label: 1 (yes)
//
compound: CC1(C)N=C(N)N=C(N)N1c1cccc(CCc2ccccc2)c1
measured_on: 786-0 renal
class_label: 0 (no)
//
compound: Cn1cnnc1[S-].[Au+].c1ccc([PH+](c2ccccc2)c2ccccc2)cc1
measured_on: 786-0 renal
class_label: 0 (no)
//
compound: C[C@@H]1CCc2ncc(F)cc2[C@H]2CCCN2c2ccn3ncc(c3n2)C(=O)N1
measured_on: 786-0 renal
class_label: 0 (no)
//
compound: NCCCN=c1ccc2c3c1c(O)c1c(O)ccc(=O)c1c3[nH]n2CCNCCO
measured_on: 786-0 renal
class_label: 0 (no)
//
compound: Cc1ccc(C2CC(c3ccc(Nc4ccnc5cc(Cl)ccc45)cc3)=NN2C=O)cc1 (stereo not drawn)
measured_on: 786-0 renal
class_label: 0 (no)
//
compound: N#[N+]c1ccc(Nc2ccccc2)cc1
measured_on: 786-0 renal
class_label: 0 (no)
//
compound: COc1cc2cc(Oc3cccc(NC(=O)Nc4cc(C(F)(F)F)cc(C(F)(F)F)c4)c3)c(C)nc2cc1OC
measured_on: 786-0 renal
class_label: 0 (no)
//
compound: CCn1c(-c2nonc2N)nc2cnc(Oc3cccc(NC(=O)c4ccc(N(C)C)cc4)c3)cc21
measured_on: 786-0 renal
class_label: 0 (no)
//
compound: CCOC(=O)c1c(CN2CCN(C)CC2)nc2ccc(Cl)cc2c1-c1ccccc1
measured_on: 786-0 renal
class_label: 0 (no)

====

test system: LOX IMVI melanoma; assay: NCI tumour cell line growth inhibition, 48 h
Parameter: TGI. Scope: all listed entries.

compound: C/C(C=O)=C/[C@@]1(C)O[C@@H](C)[C@@](C)(O)[C@@H]1O
units_text: µM
comparison_symbol: >
TGI: 100
//
compound: C[C@H]1CC[P+](C)(c2ccccc2)C1 (stereo not given in full)
units_text: µM
comparison_symbol: >
TGI: 100
//
compound: Nn1c(-c2ccc(Cl)cc2)nc2c(-c3ccc(Cl)cc3)nc3ccc(Cl)cc3c2c1=O
units_text: µM
comparison_symbol: =
TGI: 32.9
//
compound: O=C(NCCNCCNC(=O)c1cc(-c2ccccc2)nc2ccccc12)c1cc(-c2ccccc2)nc2ccccc12
units_text: µM
comparison_symbol: =
TGI: 3.05
//
compound: COc1ccc(-c2c(N)noc2-c2cc(OC)c3c(c2)OCCO3)cc1
units_text: µM
comparison_symbol: =
TGI: 24
//
compound: O=[N+]([O-])c1cccc2nccc(NCCN3CCOCC3)c12
units_text: µM
comparison_symbol: =
TGI: 46.6
//
compound: COc1cccc(-c2nc3sccn3c2-c2ccnc(NCCCNS(=O)(=O)c3ccccc3)c2)c1
units_text: µM
comparison_symbol: >
TGI: 100
//
compound: COc1cc2c3c(n(CCCNCCCNCCCN)c(=O)c2cc1OC)-c1cc2c(cc1C3=O)OCO2
units_text: µM
comparison_symbol: >
TGI: 100
//
compound: COc1ccc2c(c1)C(=O)c1c-2c(OCCN(C)C)nc2cc(OC)c(OC)cc12
units_text: µM
comparison_symbol: =
TGI: 12.3
//
compound: Cc1cc(-c2nc3c(F)cccc3s2)ccc1N
units_text: µM
comparison_symbol: >
TGI: 100

====

test system: MCF7 breast; assay: NCI tumour cell line growth inhibition, 48 h
measurement_name: TGI

compound: COC(=O)c1ccc2c(c1)CC1(C2)Cc2ccccc2C1=O (centres undefined)
measured_on: MCF7 breast
value_measured: 52.5 µM
//
compound: CC(C)(C)OC(=O)N1CCCC1C(=O)NC(c1ccccc1)c1ccccc1 (centres undefined)
measured_on: MCF7 breast
value_measured: > 100 µM
//
compound: COc1cc2cc(C(=O)N3CC(CCl)c4ccc([N+](C)(C)Cc5ccccc5[N+](=O)[O-])cc43)[nH]c2c(OC)c1OC (centres undefined)
measured_on: MCF7 breast
value_measured: > 100 µM
//
compound: CC(=O)N1C(Nc2nccs2)CCN1c1ccccc1 (centres undefined)
measured_on: MCF7 breast
value_measured: > 10 µM
//
compound: COc1ccc(C)cc1NC(=S)C#N
measured_on: MCF7 breast
value_measured: > 100 µM
//
compound: O=P(NCCCO)(OCc1ccccc1)N(CCCl)CCCl (centres undefined)
measured_on: MCF7 breast
value_measured: > 100 µM
//
compound: Cn1nnc2c3c(N(CCO)CCO)ccnc3ccc21
measured_on: MCF7 breast
value_measured: > 100 µM
//
compound: CC(=O)/C(=C\I)c1ccccc1
measured_on: MCF7 breast
value_measured: 4.05 µM
//
compound: Cc1ccc2nc(NS(=O)(=O)c3cc(C)c(Cl)cc3S)[nH]c2c1
measured_on: MCF7 breast
value_measured: > 100 µM
//
compound: COC(=O)/C=C\C(C#N)(C#N)N=Cc1ccc(OC)cc1
measured_on: MCF7 breast
value_measured: 7.44 µM
//
compound: COc1cc(OC)c2c(=O)c3cccc(C)c3n(C)c2c1
measured_on: MCF7 breast
value_measured: > 100 µM
//
compound: Cc1cc(NN=C(c2ccc(O)cc2)c2ccc(O)cc2)c([N+](=O)[O-])cc1[N+](=O)[O-]
measured_on: MCF7 breast
value_measured: 20.4 µM
//
compound: O=[N+]([O-])c1ccc(N=Nc2c(O)[nH]c3ccccc23)c([N+](=O)[O-])c1
measured_on: MCF7 breast
value_measured: 80.7 µM
//
compound: Nn1c(-c2ccc(Cl)cc2)nc2c(-c3ccc(Cl)cc3)nc3ccc(Cl)cc3c2c1=O
measured_on: MCF7 breast
value_measured: > 100 µM
//
compound: CC(C)CC(N)C(=O)NC(C(=O)NC(CCCNC(=N)N)C(=O)NC(CS)C(=O)NC1CSCC(C(=O)NC(Cc2ccccc2)C(=O)NC(C(=O)NC(CCCNC(=N)N)C(=O)O)C(C)C)NC(=O)C2CCCN2C(=O)C(CCCCN)NC(=O)C2CCCN2C(=O)C2CCCN2C(=O)C(Cc2ccc(O)cc2)NC(=O)C(CO)NC(=O)C(CCCCN)NC(=O)C(C(C)O)NC(=O)C(Cc2c[nH]c3ccccc23)NC1=O)C(C)C (centres undefined)
measured_on: MCF7 breast
value_measured: > 25 µM
//
compound: CCOc1ccc2cc(-c3nn(CC4CCNCC4)c4ncnc(N)c34)ccc2c1
measured_on: MCF7 breast
value_measured: 24.8 µM
//
compound: CN(C)c1ccc(C(O)C2=CC(=O)c3ccccc3C2=O)cc1 (centres undefined)
measured_on: MCF7 breast
value_measured: > 100 µM
//
compound: COc1ccc2nc3cc(Cl)ccc3c(NCCCN3CCN(CCCNc4ccc5nnn6c7ccccc7c(=O)c4c56)CC3)c2c1
measured_on: MCF7 breast
value_measured: 7.11 µM
//
compound: Cc1cc(S(N)(=O)=O)c(S/C(=N\NS(=O)(=O)c2ccccc2)c2ccc(Cl)cc2)cc1Cl
measured_on: MCF7 breast
value_measured: > 100 µM
//
compound: NC(=O)/C(=C/n1cnc(-c2cc(C(F)(F)F)cc(C(F)(F)F)c2)n1)c1cncnc1
measured_on: MCF7 breast
value_measured: 11.2 µM
//
compound: CC(O)[C@H](NC(=O)N[C@@H](CC(N)=O)c1nc(N2CCNCC2)no1)C(=O)O (some centres undefined)
measured_on: MCF7 breast
value_measured: > 100 µM
//
compound: CCOC(=O)c1nc2ccc(C(F)(F)F)cc2nc1Nc1ccc(OC)cc1
measured_on: MCF7 breast
value_measured: > 100 µM
//
compound: C=C1C(=O)O[C@H]2C1C[C@H](O)[C@@]1(C)OC1CC[C@@]1(C)O[C@H]21 (some centres undefined)
measured_on: MCF7 breast
value_measured: 29.5 µM
//
compound: CC(Oc1ccc(Cl)cc1Cl)C(=O)NN1C(=O)CC(=O)N(c2ccccc2)C1=S (centres undefined)
measured_on: MCF7 breast
value_measured: > 100 µM
//
compound: O=NNc1ccc(S(=O)(=O)c2ccc3ccccc3c2)cn1
measured_on: MCF7 breast
value_measured: > 100 µM
//
compound: COc1ccc(-c2nc(Nc3ccccc3)sc2Cc2sc(Nc3ccccc3)nc2-c2ccc(OC)cc2)cc1
measured_on: MCF7 breast
value_measured: > 100 µM
//
compound: CN1CCC(C(O)(c2ccccc2)c2ccc(Br)cc2)CC1 (centres undefined)
measured_on: MCF7 breast
value_measured: 64.2 µM
//
compound: COc1cc2cc(Oc3cccc(NC(=O)Nc4cc(C(F)(F)F)cc(C(F)(F)F)c4)c3)c(C)nc2cc1OC
measured_on: MCF7 breast
value_measured: 2.36 µM
//
compound: Cc1c(/C=N/NC(=S)N2CCCCC2)c(=O)n(-c2ccccc2)n1C
measured_on: MCF7 breast
value_measured: > 100 µM
//
compound: CC(=O)Oc1cc2cnc3c4cc(OC(C)=O)c(OC(C)=O)cc4ccc3c2cc1OC(C)=O
measured_on: MCF7 breast
value_measured: > 100 µM
//
compound: N#Cc1cc(S(=O)(=O)Nc2nc3cc(Cl)ccc3o2)c(SCc2ccccc2)cc1Cl
measured_on: MCF7 breast
value_measured: 33.3 µM
//
compound: C1CSCC2(COC2)CSCCSCC2(COC2)CS1
measured_on: MCF7 breast
value_measured: > 100 µM
//
compound: OCC(O)C(O)C(O)C(O)c1nnc2c(-c3ccccc3)nc3ccccc3n12 (centres undefined)
measured_on: MCF7 breast
value_measured: > 100 µM
//
compound: N#C/C(=C(/O)CCl)c1nc2ccccc2o1
measured_on: MCF7 breast
value_measured: 8.59 µM
//
compound: Cc1ccc(C(=O)Oc2ccccc2)cc1N=NN(C)C
measured_on: MCF7 breast
value_measured: > 100 µM
//
compound: COc1ccccc1-c1c(C#N)c(N)[nH]c(=S)c1C#N
measured_on: MCF7 breast
value_measured: > 100 µM
//
compound: COc1ccc(C2NC(=S)NC3=C2CCOc2c3ccc3ccccc23)cc1 (centres undefined)
measured_on: MCF7 breast
value_measured: > 100 µM
//
compound: COc1ccc(-c2nc(-c3cnccn3)n(C3OC(CO)C(O)C3O)n2)cc1 (centres undefined)
measured_on: MCF7 breast
value_measured: > 10 µM
//
compound: O=C(Cc1nc2ccccc2[nH]c1=O)c1c[nH]c2ccccc12
measured_on: MCF7 breast
value_measured: > 100 µM
